Experiment: In vitro release/permeation assay through porcine sublingual mucosa, unmodified or modified with formulations, Franz diffusion cells
Type: in vitro ADME
Details: pig, MUCOSA F16; read-out: Permeability Coef. Kp (converted)
Quantity kind: Papp at 4 h, 1 % (×10⁻⁶ cm/s)
Respond numerically; units are ×10⁻⁶ cm/s and should not be typed.

CC(C)Cc1ccc(C(C)C(=O)O)cc1 (centres unmarked) [IBU, Ibuprofen] = 1.71

Lab note: next compound to report on.
Problem: Requested field: Papp at 4 h, 1 %. Item: Cn1c(=O)c2c(ncn2C)n(C)c1=O [CAF, Caffeine]
Solution: 1.77

* * *

Assay: In vitro release/permeation assay through porcine skin, Franz diffusion cells
Type: in vitro ADME
Settings: pig, infinite dose 300 µL of 1% solution, read-out: Permeability Coef. Kp (converted)
Reported Papp at 4 h, 1 % values follow for various compounds
Respond numerically; units are ×10⁻⁶ cm/s and should not be typed.

CC(C)Cc1ccc(C(C)C(=O)O)cc1 (centres unmarked) [IBU, Ibuprofen] = 0.569

Problem: Requested field: Papp at 4 h, 1 %. Item: Cn1c(=O)c2c(ncn2C)n(C)c1=O [CAF, Caffeine]
Solution: 1.68

* * *

Reported Papp at 4 h, 1 % values follow for various compounds
Assay: In vitro release/permeation assay through porcine sublingual mucosa, unmodified or modified with formulations, Franz diffusion cells
Type: in vitro ADME
Details: pig, MUCOSA F6; read-out: Permeability Coef. Kp (converted)
Description: The in vitro release test was conducted with artificial membrane (Whatman® Nuclepore™) and porcine sublingual mucosa as well as pig skin membrane as a reference. Biological membranes (mucosa and skin) were dermatomed at 500 ± 50 µm of thickness. […] The release of the active substances was determined with the cumulative amount released (Qn, μg/cm^2), which represents the cumulative amount of the active substances quantified in the receptor fluid per area of the sample [34]. […]

CC(C)Cc1ccc(C(C)C(=O)O)cc1 (centres unmarked) = 10.4 ×10⁻⁶ cm/s

Lab note: next compound to report on.
Problem: Requested field: Papp at 4 h, 1 %. Item: `Cn1c(=O)c2c(ncn2C)n(C)c1=O`
Solution: 13.7 ×10⁻⁶ cm/s

* * *

Test: In vitro release/permeation assay through porcine sublingual mucosa, unmodified or modified with formulations, Franz diffusion cells
Format: in vitro ADME
Conditions: pig, MUCOSA F3; read-out: Permeability Coef. Kp (converted)
Protocol: The in vitro release test was conducted with artificial membrane (Whatman® Nuclepore™) and porcine sublingual mucosa as well as pig skin membrane as a reference. Biological membranes (mucosa and skin) were dermatomed at 500 ± 50 µm of thickness. […] The release of the active substances was determined with the cumulative amount released (Qn, μg/cm^2), which represents the cumulative amount of the active substances quantified in the receptor fluid per area of the sample [34]. […]
Reported Papp at 4 h, 1 % values follow for various compounds
Respond numerically; units are ×10⁻⁶ cm/s and should not be typed.

CC(C)Cc1ccc(C(C)C(=O)O)cc1 (centres unmarked) = 11.4

Lab note: next compound to report on.
Problem: Requested field: Papp at 4 h, 1 %. Item: `Cn1c(=O)c2c(ncn2C)n(C)c1=O`
Solution: 2.3

Hello, the source for this data is paper PMC10747729, in case you need it.
